- TESTED_ON: serine racemase (Rattus norvegicus, UniProt Q76EQ0)
- Construct: the rat brain enzyme we have purified; from tissue; host or cells: rat brain (10–14 day old Sprague-Dawley rats)
- PROTOCOL_TEXT: Substrate specificity of serine racemase
- Type: biochemical
- RUN_PARAMETERS: 20 mM L-amino acids, 37° C., pH 8.0, 8 h, HPLC
MEASURED_QUANTITY: Specific activity (µmol/mg/h)

C[C@@H](O)[C@H](N)C(=O)O	0

P: N[C@@H](CO)C(=O)O
Q: C[C@H](N)C(=O)O
R: N[C@@H](CC(=O)O)C(=O)O [L-aspartate]
Arrange items by their Specific activity values in increasing order. API: response body holds the labels in the requested order.
R, Q, P
(R: 0 µmol/mg/h, Q: 0.012 µmol/mg/h, P: 4.8 µmol/mg/h)
